Ref: patent US20220283177A1

# testedTarget: NDUFV1 (Homo sapiens)
# Sequence (P49821 21-464): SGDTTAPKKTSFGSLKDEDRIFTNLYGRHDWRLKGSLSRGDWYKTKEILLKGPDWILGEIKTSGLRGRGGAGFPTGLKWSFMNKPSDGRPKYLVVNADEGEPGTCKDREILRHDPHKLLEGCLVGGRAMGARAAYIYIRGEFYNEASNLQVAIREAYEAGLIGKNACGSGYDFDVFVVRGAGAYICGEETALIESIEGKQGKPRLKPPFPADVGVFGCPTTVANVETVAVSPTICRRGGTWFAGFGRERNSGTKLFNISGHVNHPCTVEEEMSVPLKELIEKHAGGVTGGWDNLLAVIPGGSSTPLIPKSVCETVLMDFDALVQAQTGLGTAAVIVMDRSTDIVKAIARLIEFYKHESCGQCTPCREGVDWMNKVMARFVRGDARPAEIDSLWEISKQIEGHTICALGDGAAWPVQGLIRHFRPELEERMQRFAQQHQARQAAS
# assayDetails: Affinity evaluation by solvent mixture-based SIP dose response (western blotting)
pEC50: −log10 of the molar value.
attributeMeasured: pEC50

Problem: Give the reported pEC50 for this compound. COC1=C2C[C@@H](C)C[C@H](OC)[C@H](O)[C@@H](C)/C=C(\C)[C@H](OC(N)=O)[C@@H](OC)/C=C\C=C(/C)C(=O)NC(=CC1=O)C2=O [geldanamycin]
Solution: 4.00 to 5.00
